- assayed target: T1, Human CD3 epsilon (CD3ε) of the T cell receptor complex on cells (human, UniProt P07766 23-207)
- T1 construct: On Jurkat cells and primary human (pan) T cells; also called T-cell surface glycoprotein CD3 epsilon chain; T3E
- T1 sequence (P07766 23-207 limits assumed, one chain of several): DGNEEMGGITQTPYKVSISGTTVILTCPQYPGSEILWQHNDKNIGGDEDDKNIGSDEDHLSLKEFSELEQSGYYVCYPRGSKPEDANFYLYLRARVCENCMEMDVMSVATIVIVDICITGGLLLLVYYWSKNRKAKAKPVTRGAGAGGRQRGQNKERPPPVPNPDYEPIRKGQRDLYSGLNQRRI
- measurement notes: flow cytometry, E. coli supernatant on human T cells
Entry flag: yes (1) if MFI (n = 2) reaches 100000; no (0) if it does not.

>>> assigned_category("CD3W245-HL-E.c. (scFv, E. coli supernatant) scFv: EVQLVESGGGLVKPGGSLRLSCAASGFTFSRYNMNWVRQAPGKGLEWVSSISTSSNYIYYADSVKGRFTFSRDNAKNSLDLQMSGLRAEDTAIYYCTRGWGPFDYWGQGTLVTVSSGTEGKSSGSGSESKSTDIQMTQSPSSLSASVGDRVTITCRARQSIGTAIHWYQQKPGKAPKLLIKYASESISGVPSRFSGSGSGTDFTLTISSLQPEDFATYYCQQSGSWPYTFGQGTKLEIKGPGGQHHHHHHGAYPYDVPDYAS")
"yes (1)"
>>> assigned_category("CD3W234-HL-E.c. (scFv, E. coli supernatant; also called CD3B815-HL-scFV) scFv: EVQLVESGGGLVKPGGSLRLSCAASGFTFSRYNMNWVRQAPGKGLEWVSSISTSSNYIYYADSVKGRFTFSRDNAKNSLDLQMSGLRAEDTAIYYCTRGWGPFDYWGQGTLVTVSSGTEGKSSGSGSESKSTDILLTQSPGILSVSPGERVSFSCRARQSIGTAIHWYQQRTNGSPRLLIKYASESISGIPSRFSGSGSGTDFTLTINSVESEDIADYYCQQSNSWPYTFGGGTKLEIKGPGGQHHHHHHGAYPYDVPDYAS")
"no (0)"
>>> assigned_category("CD3W242-HL-E.c. (scFv, E. coli supernatant) scFv: EVQLVESGGGLVKPGGSLRLSCAASGFTFSRYNMNWVRQAPGKGLEWVSSISTSSNYIYYADSVKGRFTFSRDNAKNSLDLQMSGLRAEDTAIYYCTRGWGPFDYWGQGTLVTVSSGTEGKSSGSGSESKSTDIQMTQSPSSLSASVGDRVTITCRARQSIGTAIHWYQQKPGKAPKLLIKYASESISGVPSRFSGSGSGTDFTLTISSLQPEDFATYYCQQSNSWPYTFGQGTKLEIKGPGGQHHHHHHGAYPYDVPDYAS")
"yes (1)"
>>> assigned_category("CD3W247-HL-E.c. (scFv, E. coli supernatant) scFv: EVQLVESGGGLVKPGGSLRLSCAASGFTFSRYNMNWVRQAPGKGLEWVSSISTSSNYIYYADSVKGRFTFSRDNAKNSLDLQMSGLRAEDTAIYYCTRGWGPFDYWGQGTLVTVSSGTEGKSSGSGSESKSTDIQMTQSPSSLSASVGDRVTITCRARQSIGTAIHWYQQKPGKAPKLLIYYASESISGVPSRFSGSGSGTDFTLTISSLQPEDFATYYCQQSGSWPYTFGQGTKLEIKGPGGQHHHHHHGAYPYDVPDYAS")
"yes (1)"

Now for another entry.
## Input Reported MFI (n = 2) reaches at least 100000 for CD3W244-HL-E.c. (scFv, E. coli supernatant) scFv: EVQLVESGGGLVKPGGSLRLSCAASGFTFSRYNMNWVRQAPGKGLEWVSSISTSSNYIYYADSVKGRFTFSRDNAKNSLDLQMSGLRAEDTAIYYCTRGWGPFDYWGQGTLVTVSSGTEGKSSGSGSESKSTDIQMTQSPSSLSASVGDRVTITCRARQSIGTAIHWYQQKPGKAPKLLIYYASESISGVPSRFSGSGSGTDFTLTISSVQPEDFATYYCQQSGSWPYTFGQGTKLEIKGPGGQHHHHHHGAYPYDVPDYAS ?
## Output yes (1)
